Recorded values, source patent US20120237528A1.

target: T1, recombinant extracellular domain (ECD) of human TF, amino acid 1-219 of the mature chain, C-terminal His6-tag (human, UniProt P13726 33-251); experiment: Biacore
T1 construct: expressed in a mammalian system; used for ELISA and Biacore; biotinylated by NHS-ester for the Fab ELISA; also called His6-TF-ECD1-219; HumanTF1-219
Kindly state kon for each of the entries shown.
Reply with the number, then its unit.

Per the record, M1613 (antibody, V domains shown, complete MAb; FR4 is its own entry; also called H136/L3) VH: EVQLVQSGAEVKKPGESLRISCKGSGYTFSSHWIEWVRQMPGKGLEWMGDILPGSGFTHYSPSFQGHVTISADKSISTAYLKWSSLKASDTAMYYCARSGYYGNSGFAYWGQGTLVTVSS VL: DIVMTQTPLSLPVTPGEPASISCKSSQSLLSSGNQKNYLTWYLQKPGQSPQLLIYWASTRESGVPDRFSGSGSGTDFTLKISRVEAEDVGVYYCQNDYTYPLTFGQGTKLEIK has kon of 75700 M⁻¹ s⁻¹

Per the record, M1604 (antibody, V domains shown, complete MAb; FR4 is its own entry; also called H138/L3) VH: EVQLVQSGAEVKKPGESLRISCKGSGYTFAPYWIEWVRQMPGKGLEWMGDILPGTGYTWYSPSFQGHVTISADKSISTAYLQWSSLKASDTAMYYCARSGYYGNSGFAYWGQGTLVTVSS VL: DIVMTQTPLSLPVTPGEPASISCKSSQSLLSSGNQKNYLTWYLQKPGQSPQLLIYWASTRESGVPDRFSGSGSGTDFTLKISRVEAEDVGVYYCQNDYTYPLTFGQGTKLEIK has kon of 152000 M⁻¹ s⁻¹

Per the record, M1590 (antibody, V domains shown, complete MAb; FR4 is its own entry; also called H117/L3) VH: EVQLVQSGAEVKKPGESLRISCKGSGYTFLPYWIEWVRQMPGKGLEWMGDIIPGTGFTNYSPSFQGHVTISADKSISTAYLQWSSLKASDTAMYYCARSGYYGNSGFAYWGQGTLVTVSS VL: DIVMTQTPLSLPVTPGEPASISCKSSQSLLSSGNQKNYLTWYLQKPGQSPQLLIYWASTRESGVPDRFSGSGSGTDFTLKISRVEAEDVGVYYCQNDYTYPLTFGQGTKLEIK has kon of 159000 M⁻¹ s⁻¹

Per the record, M61 (antibody, V domains shown, complete MAb; FR4 is its own entry; also called H22/L5) VH: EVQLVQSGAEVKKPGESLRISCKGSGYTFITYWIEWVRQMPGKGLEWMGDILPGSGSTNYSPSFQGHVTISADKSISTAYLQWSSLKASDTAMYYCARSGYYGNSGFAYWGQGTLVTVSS VL: DIVMTQTPLSLSVTPGQPASISCKSSQSLLSSGNQKNYLTWYLQKPGQPPQLLIYWASTRESGVPDRFSGSGSGTDFTLKISRVEAEDVGVYYCQNDYTYPLTFGQGTKLEIK has kon of 94100 M⁻¹ s⁻¹

Per the record, M37 (antibody, V domains shown, complete MAb; FR4 is its own entry; also called H19/L2) VH: QVQLVQSGAEVKKPGSSVKVSCKASGYTFITYWIEWVRQAPGQGLEWMGDILPGSGSTNYNENFKGRVTITADESTSTAYMELSSLRSEDTAVYYCARSGYYGNSGFAYWGQGTLVTVSS VL: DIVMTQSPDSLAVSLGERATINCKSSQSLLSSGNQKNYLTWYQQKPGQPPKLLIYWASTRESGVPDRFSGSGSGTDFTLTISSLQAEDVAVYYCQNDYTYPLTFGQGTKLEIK has kon of 69000 M⁻¹ s⁻¹
